Where do these numbers come from? They come from ChEMBL document CHEMBL3988442.

# ASSAYED_SYSTEM: Aspartate--tRNA(Asp/Asn) ligase (Mycobacterium tuberculosis (strain ATCC 25618 / H37Rv))
# TEST_NAME: Assay for Asp RNA synthetase-1 from Mycobacterium tuberculosis
# Assay type: functional
# Set-up: scale not given: in the data most compounds retested in dose-response had high values
# STUDY_CONDITIONS: 30 µM

>  <COMPOUND>
CC(=O)NC1CCCN(C(=O)Nc2cnc3c(cnn3C(C)C)c2)C1 (stereo unspecified)

>  <Percent Effect / %>
-4.11

$$$$
>  <COMPOUND>
N#CC1(C(=O)Nc2ccc(OC(F)F)cc2)CCCC1

>  <Percent Effect / %>
3.4

$$$$
>  <COMPOUND>
O=C(c1ccnnc1)N1C[C@H]2CCC[C@@]2(COCC2CCOCC2)C1

>  <Percent Effect / %>
3.07

$$$$
>  <COMPOUND>
CC(=O)N1CCOC2(CCN(C(=O)c3cnoc3C)CC2)C1

>  <Percent Effect / %>
-1.11

$$$$
>  <COMPOUND>
O=C(NCc1cc(=O)n2c(n1)CN(CC1CCOC1)CCC2)C1CC1 (stereo unspecified)

>  <Percent Effect / %>
-1

$$$$
>  <COMPOUND>
CCOc1ccc(Cl)c(C(=O)N2CCN(C(=O)c3ccoc3C)CC2)n1

>  <Percent Effect / %>
-4.19

$$$$
>  <COMPOUND>
Cc1ccccc1NS(=O)(=O)c1cc2c(c(C(=O)O)c1)OCCO2

>  <Percent Effect / %>
-0.815

$$$$
>  <COMPOUND>
O=C(CC1=CCCCC1)NCCc1csc(N2CCCC2)n1

>  <Percent Effect / %>
2.52

$$$$
>  <COMPOUND>
Cc1cnn(CC(C)NCc2ccc(-n3cccn3)cc2)c1 (stereo unspecified)

>  <Percent Effect / %>
-3.68

$$$$
>  <COMPOUND>
Cc1noc(C)c1CN1CCN(Cc2nccn2C)CC1

>  <Percent Effect / %>
-5.33

$$$$
>  <COMPOUND>
COc1ccc(C2CC(=O)Nc3c2cnn3C2CCCC2)cc1 (stereo unspecified)

>  <Percent Effect / %>
-1.45

$$$$
